Molecular target: Enoyl-acyl-carrier protein reductase (Plasmodium falciparum, UniProt Q965D5)
Sequence (Q965D5 whole entry): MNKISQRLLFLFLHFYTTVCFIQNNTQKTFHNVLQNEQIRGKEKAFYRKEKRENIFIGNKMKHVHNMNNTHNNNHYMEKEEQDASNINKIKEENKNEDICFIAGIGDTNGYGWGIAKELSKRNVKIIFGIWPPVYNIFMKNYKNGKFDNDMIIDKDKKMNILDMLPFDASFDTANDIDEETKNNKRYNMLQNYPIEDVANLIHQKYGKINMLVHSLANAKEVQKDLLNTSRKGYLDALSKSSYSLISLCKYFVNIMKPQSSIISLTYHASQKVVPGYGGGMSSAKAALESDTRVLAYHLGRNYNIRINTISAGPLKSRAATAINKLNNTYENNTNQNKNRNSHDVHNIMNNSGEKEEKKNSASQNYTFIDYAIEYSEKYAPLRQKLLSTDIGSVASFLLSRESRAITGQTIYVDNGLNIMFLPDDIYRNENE
Assay: Inhibition of Plasmodium falciparum recombinant enoyl ACP reductase expressed in BL21 (DE3) cells
property_name: IC50 (µM)

In [3]: df
Out[3]:
                            chemical_smiles  property_name  assay_result
0  O=C1c2c(Cl)c(Cl)c(Cl)c(Cl)c2C(=O)N1c1ccc2[nH]c(/C=C/c3ccc(Cl)cc3)nc2c1           IC50            70
1  CCCCCCOc1ccc(/C=C2\SC(=S)N(CCCCCC(=O)O)C2=O)cc1OC           IC50             7
2  COc1ccc(N2C(=O)/C(=C/c3ccc(OC)c4ccccc34)SC2=S)cc1           IC50          0.87
3  CN1C(=O)/C(=C/c2ccc(-c3cc(Cl)cc(Cl)c3)o2)SC1=S           IC50          0.87
4  CN1C(=O)/C(=C/c2ccc(-c3ccc(Cl)cc3Cl)o2)SC1=S           IC50          0.87

[I] O=C1/C(=C/c2ccc(O)c(O)c2)SC(=S)N1c1ccccc1
[II] O=C1NC(=S)S/C1=C\c1ccc(-c2ccccc2Cl)o1
I'm curious whether I or II has the smaller IC50 number. Which is it? Provide the label of your selected option as the answer.
I

From: ChEMBL document CHEMBL1143659
